Source of measurements: patent US10174000B2

study target: human IRAK4 FL (Full Length), phosphorylated (Homo sapiens (Human))
Sequence (Q9NWZ3 whole entry): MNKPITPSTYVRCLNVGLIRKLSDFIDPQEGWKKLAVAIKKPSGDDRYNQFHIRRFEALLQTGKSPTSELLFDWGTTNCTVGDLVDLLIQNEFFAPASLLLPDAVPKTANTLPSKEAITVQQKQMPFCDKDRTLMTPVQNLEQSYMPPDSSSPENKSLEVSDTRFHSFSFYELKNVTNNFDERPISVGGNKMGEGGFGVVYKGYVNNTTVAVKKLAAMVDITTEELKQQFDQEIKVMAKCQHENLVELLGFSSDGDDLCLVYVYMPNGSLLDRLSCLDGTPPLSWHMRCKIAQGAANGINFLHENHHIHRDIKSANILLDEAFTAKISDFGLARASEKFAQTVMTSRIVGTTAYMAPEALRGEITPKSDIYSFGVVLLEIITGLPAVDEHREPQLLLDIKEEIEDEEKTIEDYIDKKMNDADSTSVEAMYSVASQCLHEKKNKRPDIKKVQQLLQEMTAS
experiment summary: IRAK4 Enzymatic DELFIA Assay, Protocol A
Format: biochemical
measurement context: 600 μM ATP (KM); full-length phosphorylated recombinant human IRAK4
The entries below come with measured log10 IC50 values attached.
// units: nM (pre-log); metric: IC50; scale: log10

- structure: "CC[C@@H]1CC(=O)N[C@@H]1COc1cncc2cc(C(N)=O)c(OC)cc12"
  log10 IC50: 1.67
- structure: "COc1cc2c(OC[C@@H]3NC(=O)[C@@H](F)C34CC4)nccc2cc1C(N)=O"
  log10 IC50: 4.41
- structure: "CC[C@@H]1[C@H](F)C(=O)N[C@@H]1COc1ncc(N)c2cc(C(N)=O)c(OC)cc12"
  log10 IC50: 0.34
- structure: "Cc1nc(-c2cnc(OC[C@@H]3CCC(=O)N3)c3cc(OC(C)C)c(C(N)=O)cc23)oc1C"
  log10 IC50: 1.76
- structure: "CC(C)Oc1cc2c(OC[C@@H]3CCC(=O)N3)ncc(-c3ccn(C)n3)c2cc1C(N)=O"
  log10 IC50: 2.05

Inquiry: Give the measured log10 IC50 of "NC(=O)c1cc2ccnc3c2cc1OCCOC[C@H]1C[C@@H](CO3)NC1=O" .
Reply text: 3.28

Inquiry: Then what about the molecule "CC[C@@H]1[C@H](F)C(=O)N[C@@H]1COc1cccc2cc(C(N)=O)c(OC)cc12" ?
Reply text: -0.10

Inquiry: Then what about the molecule "CC(C)Oc1cc2c(OC[C@@H]3CCC(=O)N3)ncc(-c3nc(CO)c[nH]3)c2cc1C(N)=O" ?
Reply text: 3.32

Inquiry: Then what about the molecule "CC(C)Oc1cc2c(OC[C@H]3NC(=O)[C@@H](F)C34CC4)nccc2cc1C(N)=O" ?
Reply text: 0.73

Inquiry: Then what about the molecule "CC(C)Oc1cc2c(OC[C@@H]3NC(=O)[C@H](F)C34CC4)nccc2cc1C(N)=O" ?
Reply text: 4.20

Inquiry: Then what about the molecule "CC[C@@H]1[C@H](F)C(=O)N[C@@H]1COc1nccc2nc(C(N)=O)c(OC)cc12" ?
Reply text: 1.43

Inquiry: Then what about the molecule "COc1cc2c(OC[C@]34C[C@H]3CC(=O)N4)nccc2cc1C(N)=O" ?
Reply text: 3.63

Inquiry: Then what about the molecule "CC[C@@H]1[C@H](F)C(=O)N[C@@H]1COc1cncc2cc(C(N)=O)c(OC)cc12" ?
Reply text: 0.89

====

study target: human IRAK4 FL (Full Length), phosphorylated (Homo sapiens (Human))
experiment summary: IRAK4 Enzymatic DELFIA Assay, Protocol A
measurement context: 600 μM ATP (KM); full-length phosphorylated recombinant human IRAK4
pIC50: −log10 of the molar value.
Please mark yes if the recorded pIC50 is equal to or greater than 6, and no if it falls below.

- compound: "COc1cc2c(OC[C@H]3NC(=O)[C@@H](F)C34CC4)nccc2cc1C(N)=O [Example 24]"
  label value: "yes"
- compound: "COc1cc2c(OC[C@H]3NC(=O)[C@H](F)C34CC4)nccc2cc1C(N)=O [Example 21]"
  label value: "yes"

Inquiry: Does the compound CC(C)Oc1cc2c(OC[C@@H]3NC(=O)[C@@H](F)C34CC4)nccc2cc1C(N)=O [Example 16] have recorded pIC50 that is 6 or more?
Reply text: no

Inquiry: Then what about the compound CC(C)Oc1cc2c(OC[C@@H]3CCC(=O)N3)ncc(-c3ncco3)c2cc1C(N)=O [Example 2] ?
Reply text: yes

Inquiry: Then what about the compound CC(C)Oc1cc2c(OC[C@H]3NC(=O)[C@H](F)C34CC4)nccc2cc1C(N)=O [Example 17] ?
Reply text: yes

Inquiry: Then what about the compound CC(C)Oc1cc2c(OC[C@@H]3CCC(=O)N3)ncc(-c3cnn(C)c3)c2cc1C(N)=O [Example 5] ?
Reply text: yes

Inquiry: Then what about the compound Cc1c[nH]c(-c2cnc(OC[C@@H]3CCC(=O)N3)c3cc(OC(C)C)c(C(N)=O)cc23)n1 [Example 3] ?
Reply text: no

Inquiry: Then what about the compound COc1cc2c(OCC34CC3CC(=O)N4)nccc2cc1C(N)=O (racemic) [Example 29] ?
Reply text: no
